Recorded measurements of melting point, one per entry
Measurement label: melting point

* Oc1ccc(-c2ncc3ncc(Nc4cccnc4)cc3n2)cc1 | > 268 °C
* CN(C)CCSc1ccc2ccc(N)nc2n1 | 174 °C
* Cc1ccc(C(=O)COC(=O)NC(C)C)cc1 | 130 to 133 °C
* Cn1c(C(F)(F)F)cc(=O)n(-c2ccc3snc(COCC(=O)O)c3c2)c1=O | 191 to 192 °C
* O=[N+]([O-])c1cc(C=Cc2ccncc2)cc(O)c1O | > 350 °C
* O=C1CN2Cc3cc(C(=O)c4ccccc4)ccc3N=C2N1 | > 300 °C
* CCOC(=O)COc1c(F)cc(S(=O)(=O)CCNS(=O)(=O)c2ccc(Cl)cc2)cc1F | 166 to 167 °C
* O=C(O)c1cc(Cl)c(-n2ccc(C(F)(F)F)cc2=O)c(Cl)c1 | 259 to 260 °C
* COc1ccc(CCC#N)cc1OC | 45 to 48 °C
* CC(=O)N1CC(C)(C)c2cc3[nH]nnc3cc21 | 281 to 283 °C
* C=CCN1CCc2cc(OC)c(OC)c3c2C1Cc1cc(OC)c(OC)cc1-3 (single isomer, unassigned; (+)) | 139 to 143 °C
* N#Cc1c[nH]c2ccc([N+](=O)[O-])cc12 | 186 to 190 °C
* Cc1cc(-c2ccc(OC(F)(F)F)cc2)ccc1C1COC(c2c(F)cccc2F)=N1 (stereo unspecified) | 78.5 to 79 °C
* CCOC(=O)NCN1C(=O)CN=C(c2ccccc2Cl)c2cc(Cl)ccc21 | 147 to 149 °C
* OC(Cc1ccncc1)C(Cl)(Cl)Cl (stereo unspecified) | 166 to 168 °C
* CC(O)c1cc2c(s1)S(=O)(=O)CCc1cc(=O)n(-c3ccc(Cl)cc3)nc1-2 (stereo unspecified) | 233 to 235 °C
* O=Cc1c(Br)nc(-c2ccccc2)n1Cc1cc2c(cc1Cl)OCO2 | 148 °C
* Cc1nc2c(OCc3ccccc3F)cccn2c1CC#N | 172 to 173 °C
* CCOP(=O)(CCCCc1ccc2ccccc2c1O)OCC | 90 to 91 °C
* CCOC(=O)/C=C/c1cc(-c2ccc(C(F)(F)F)cc2)oc1CC | 82 to 83 °C
* CCOc1ccc(C(=O)c2ccccc2F)c(Cl)c1Cl | 94 to 95 °C

----------
Measured melting point values are reported for all entries that follow.
Measurement label: melting point

- CCOC(=O)CCCCCCC1C(=O)NC(=O)N1CCC(O)C1CCCCC1 (stereo not given): 62 to 63 °C
- CC(O)CCNc1cc(C(=O)O)cc(S(N)(=O)=O)c1Oc1ccccc1 (stereo not given): 245 to 247 °C
- CS[C@H]([C@@H](C)C(=O)O)[C@@H]1CCCN1C(=O)OC(C)(C)C: 141 to 142 °C
- Cc1c(NC(=O)c2ccc(-c3ccc(Cl)cc3)cc2F)ccc2cc(CN3CCCC3)cnc12: 181 to 183 °C
- CSC(C[C@H](NC(=O)[C@H](CC(C)C)NC(=O)OCc1ccccc1)C(C)=O)c1ccccc1 (stereo not given in full): 119 to 120 °C
- CC(C)(C)OC(=O)C(Nc1ccccc1)c1ccc(Cl)cc1 (racemic): 98 °C
- CNC(Cc1ccccc1NC(=O)C(C)(C)C)c1cccnc1 (stereo not given): 91.5 to 96 °C
- CCCCc1ccc(S(=O)(=O)Nc2cc(C)on2)s1: 96.5 to 101 °C
- CC(C)(C)OC(=O)C=Cc1ccc2ccccc2n1: 96 to 97 °C
- Cc1cc(C(N)=O)ccc1N=C1SC[C@H](CC(C)C)N1CC(C)C: 130 to 131 °C
- Cc1csc2c1c(N1CCN(C(=O)c3cccs3)CC1)c(C#N)c(=O)n2Cc1ccccc1: 223 °C
- O=C(O)c1cc2ccoc2nc1C(=O)O: 189 to 192 °C
- CCOC(=O)C(=CNc1ccnn1Cc1ccco1)C(=O)c1ccccc1: 75 to 77 °C
- COc1ccc(C2CCOCC2)cc1NC(=S)c1ncc[nH]1: 189 to 190 °C
- CN(c1cccc2cc(C3=NCC(CN4CCS(=O)(=O)CC4)S3)[nH]c12)S(=O)(=O)c1ccccn1 (stereo not given): 188 to 189 °C
- CN1C(C)(C)CC2(CC1(C)C)NC(=O)N(CC(O)COCC(O)COCC(O)CN1C(=O)NC3(CC(C)(C)N(C)C(C)(C)C3)C1=O)C2=O (stereo not given): 175 to 177 °C
- COCCOc1cc2ncnc(NC3=CC(=O)C(N4CCCCC4)=CC3=O)c2cc1OC: 197 to 200 °C
- N=C(NCC1(c2ccccc2)CC1)NN=Cc1c(Cl)cccc1Cl: 136 to 138 °C
- Clc1ccc(Sc2ncccn2)cc1: 68 to 70 °C
- CC1(C)Oc2ccc(C#N)cc2C(n2ccc(O)cc2=O)C1O (stereo not given): 248 to 250 °C
